FYI, the data here is from patent US5587463A.

- assay: Optical and photophysical properties of metallotexaphyrins (laser flash photolysis, fluorescence, singlet oxygen luminescence)
- Assay type: physicochemical
- measurement conditions: CH3 OH; ±10%
measured property: D^1 O2 (singlet oxygen quantum yield)
Keep the answer to the number alone.

The reported D^1 O2 (singlet oxygen quantum yield) of the molecule CCC1=C(C)c2cnc3ccccc3ncc3nc(cc4[n-]c(cc1n2)c(CC)c4CC)C(CC)=C3C.O=[N+]([O-])[O-].[Cd+2] [3C NO3] was 0.69

The reported D^1 O2 (singlet oxygen quantum yield) of the molecule CCC1=C(C)c2cnc3ccc(Cl)cc3ncc3nc(cc4[n-]c(cc1n2)c(CC)c4CC)C(CC)=C3C.O=[N+]([O-])[O-].[Cd+2] [4C NO3] was 0.74

---

- assay: Optical and photophysical properties of metallotexaphyrins (laser flash photolysis, fluorescence, singlet oxygen luminescence)
- Type: physicochemical
- measurement conditions: CH3 OH; ±10%
measured property: Df (fluorescence quantum yield)

The reported Df (fluorescence quantum yield) of the compound CCC1=C(C)c2cnc3ccccc3ncc3nc(cc4[n-]c(cc1n2)c(CC)c4CC)C(CC)=C3C.[Mn+2].[OH-] [5C OH] was < 0.001

The reported Df (fluorescence quantum yield) of the compound CCC1=C(C)c2cnc3cc(C)c(C)cc3ncc3nc(cc4[n-]c(cc1n2)c(CC)c4CC)C(CC)=C3C.[OH-].[OH-].[Sm+3] [6C (OH)2] was < 0.001

The reported Df (fluorescence quantum yield) of the compound CCC1=C(C)c2cnc3cc(C)c(C)cc3ncc3nc(cc4[n-]c(cc1n2)c(CC)c4CC)C(CC)=C3C.[Eu+3].[OH-].[OH-] [7C (OH)2] was < 0.001

---

- assay: Optical and photophysical properties of metallotexaphyrins (laser flash photolysis, fluorescence, singlet oxygen luminescence)
- Type: physicochemical
- measurement conditions: CH3 OH; ±10%
Task for the reader: assign each of the following compounds its reported D^1 O2 (singlet oxygen quantum yield).

The reported D^1 O2 (singlet oxygen quantum yield) of the compound CCC1=C(C)c2cnc3ccccc3ncc3nc(cc4[n-]c(cc1n2)c(CC)c4CC)C(CC)=C3C.[Mn+2].[OH-] was < 0.05

The reported D^1 O2 (singlet oxygen quantum yield) of the compound CCC1=C(C)c2cnc3cc(C)c(C)cc3ncc3nc(cc4[n-]c(cc1n2)c(CC)c4CC)C(CC)=C3C.[Eu+3].[OH-].[OH-] was < 0.05

The reported D^1 O2 (singlet oxygen quantum yield) of the compound CCC1=C(C)c2cnc3cc(C)c(C)cc3ncc3nc(cc4[n-]c(cc1n2)c(CC)c4CC)C(CC)=C3C.[OH-].[OH-].[Sm+3] was < 0.05
